Parameter M249 % Viability 5 nM: see the listing below.
Test system: M249 melanoma cell line
Assay Method Text: Anti-proliferative effect of miRNA mimics, MTS assay
Type: cell-based
Assay Setup: 5 nM mimic, 72 hours after transfection
Endpoint Name: M249 % Viability 5 nM (%)

>>> reported_measurement("hsa-miR-182-3p: mature miRNA mimic, SEQ ID NO 10 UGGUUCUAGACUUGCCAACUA (listed as RNA, chemistry not given here)")
71
>>> reported_measurement("hsa-miR-7-5p: mature miRNA mimic, SEQ ID NO 1 UGGAAGACUAGUGAUUUUGUUGU (listed as RNA, chemistry not given here)")
48
>>> reported_measurement("hsa-miR-96-5p: mature miRNA mimic, SEQ ID NO 3 UUUGGCACUAGCACAUUUUUGCU (listed as RNA, chemistry not given here)")
64
